// 5HT2A receptor (Homo sapiens) pKi records
Would you please state pKi, meaning minus log10 of the concentration in mol/L, as a bare number?

C[C@H](N)Cn1ccc2c1-c1cc(F)ccc1C2(C)C : 7.46
COc1cc2c(cc1Cl)C(C)(C)c1ccn(C[C@H](C)N)c1-2 : 7.17
Cc1ccc2c(c1)-c1c(ccn1C[C@H](C)N)C21CCCC1 : 6.57
COc1ccc2c(c1)-c1c(ccn1C[C@H](C)N)C2 : 7.12
CCc1ccc2c(c1)-c1c(ccn1C[C@H](C)N)C2(C)C : 7.18

Measured pKi for this entry `Cc1ccc2c(c1)-c1c(ccn1C[C@H](C)N)C2(C)C.O=C(O)/C=C/C(=O)O` on 5HT2A receptor (Homo sapiens): 7.27

With 5HT2A receptor (Homo sapiens) as the test system, `CCc1ccc2c(c1)-c1c(ccn1C[C@H](C)N)C2` showed pKi of 6.25

Sample `CCC1(CC)c2ccc(OC)cc2-c2c1ccn2C[C@H](C)N` , system: 5HT2A receptor (Homo sapiens). Its pKi is 6.94

###

Molecular target: 5HT2A receptor (Rattus norvegicus)
Construct: from tissue; host or cells: rat frontal cortex membranes (inferred from the cited method)
Assay: biochemical
Type: binding
property measured: IC50 (nM)
Could you give me the number in nM? Just the number is fine.

Solved cases (4 shown):
CC(N)Cn1ccc2c1-c1ccccc1C2c1ccccc1 (racemic) [Example 69] : 854
COc1ccc2ccc3ccn(CCN)c3c2c1 [Example 32] : 1670
COc1ccccc1N1CCN(CCCCN2C(=O)c3ccccc3C2=O)CC1 [NAN-190, reference compound] : 581
COc1ccc2c(c1)-c1c(ccn1C[C@H](C)N)C2 [Example 3] : 2160

Recorded IC50 for COc1ccc2c(c1)-c1c(ccn1CCN)CC2 [Example 59] on 5HT2A receptor (Rattus norvegicus) was 1510

Lab note: compound C[C@H](N)Cn1ccc2c1-c1cc(Cl)ccc1C2 [Example 4] tested on 5HT2A receptor (Rattus norvegicus); recorded IC50 was 2170

5HT2A receptor (Rattus norvegicus) IC50 of Cc1nc2ccccn2c(=O)c1CCN1CCC(C(=O)c2ccc(F)cc2)CC1 [Pirenperone, reference compound] is 2.9

5HT2A receptor (Rattus norvegicus) IC50 of COc1ccc2ccc3ccn(C[C@H](C)N)c3c2c1 [Example 7] is 1200

Field IC50 (system: 5HT2A receptor (Rattus norvegicus)) for entry COc1ccc2c(c1)-c1c(ccn1C[C@@H](C)N)C2 [Example 28] = 1630

Measured IC50 for this entry COc1ccc2c(c1)-c1c(ccn1CC(C)N)C2 (racemic) [Example 22] on 5HT2A receptor (Rattus norvegicus): 1400

###

Target: 5HT2A receptor (Rattus norvegicus, UniProt P14842)
Construct: from tissue; host or cells: rat frontal cortex membranes (inferred from the cited method)
Sequence (P14842 whole entry): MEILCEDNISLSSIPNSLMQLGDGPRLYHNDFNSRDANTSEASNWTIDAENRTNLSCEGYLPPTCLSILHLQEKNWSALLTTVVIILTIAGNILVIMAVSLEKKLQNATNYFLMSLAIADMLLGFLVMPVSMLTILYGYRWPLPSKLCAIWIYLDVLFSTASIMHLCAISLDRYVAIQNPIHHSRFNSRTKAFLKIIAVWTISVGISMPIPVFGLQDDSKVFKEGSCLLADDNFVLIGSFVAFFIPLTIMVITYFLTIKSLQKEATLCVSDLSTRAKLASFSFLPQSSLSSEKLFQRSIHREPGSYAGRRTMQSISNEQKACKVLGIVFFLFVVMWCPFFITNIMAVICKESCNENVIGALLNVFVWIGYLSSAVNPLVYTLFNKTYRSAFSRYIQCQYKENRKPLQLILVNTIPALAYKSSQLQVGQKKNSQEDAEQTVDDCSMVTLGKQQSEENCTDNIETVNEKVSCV
Assay: biochemical
Type: binding
property measured: pIC50
A value of pIC50 is the negative decimal logarithm of a concentration given in moles per litre.

Examples with their reported pIC50 follow.
CC(N)Cn1ccc2c1-c1ccc(Cl)cc1C2 (racemic) : 4.95
CC(N)Cn1ccc2c1-c1cc(Cl)ccc1C2 (racemic) : 5.60
CC(N)Cn1ccc2c1-c1ccccc1SC2 (racemic) : 6.11

From here, focus on the item given below.
Looking up COc1ccc2c(c1)Cc1ccn(CC(C)N)c1-2 (racemic) , I found its pIC50 recorded as 5.08

###

Target: 5HT2A receptor (Rattus norvegicus, UniProt P14842)
Construct: from tissue; host or cells: rat frontal cortex membranes (inferred from the cited method)
Assay: biochemical
Assay type: binding
property measured: pIC50
pIC50 field: float, defined as -log10 of concentration (mol/L).

Field: example entries. Status: answers known.
COc1cccc2c1-c1c(ccn1CC(C)N)C2 (racemic) : 5.97
O=c1ccc2[nH]cc(C3=CCNCC3)c2[nH]1 [CP 93129, reference compound] : 4.53

Next molecule, please.
Briefly, pIC50 measured for `COc1ccc2ccc3ccn(C[C@@H](C)N)c3c2c1` : 6.06

Reference source for all entries: patent US5646173A
